Please respond with reported Population Pyknosed Nuclei (%) for every item in the list.
Test system: HEK-293T
Experiment: Multiplex assay against HEK293T
Format: toxicity, cell-based
Conditions: human, 24 h, 1 µM, compound concentration 1 uM, number of replicates 2
One number for each entry, in %.

A selection of reference data follows.
compound.structure.string	Population Pyknosed Nuclei (%)
O=C1NC(=O)C(c2ccccc2[N+](=O)[O-])=C1Nc1ccc(O)c(Cl)c1	8
CCN1C(=O)N(c2c(F)c(OC)cc(OC)c2F)Cc2cnc3[nH]c(CN4CCOCC4)cc3c21	9

# input for lookup
Sample C=CC(=O)Nc1cccc(C)c1Nc1ncc2cc(-c3c(Cl)c(OC)cc(OC)c3Cl)ccc2n1 — what was its Population Pyknosed Nuclei (%)?
7
